Target: human orexin type 2 receptor (hOX2R) (Homo sapiens)
Construct: expressed in transfected cells
Sequence (O43614 whole entry): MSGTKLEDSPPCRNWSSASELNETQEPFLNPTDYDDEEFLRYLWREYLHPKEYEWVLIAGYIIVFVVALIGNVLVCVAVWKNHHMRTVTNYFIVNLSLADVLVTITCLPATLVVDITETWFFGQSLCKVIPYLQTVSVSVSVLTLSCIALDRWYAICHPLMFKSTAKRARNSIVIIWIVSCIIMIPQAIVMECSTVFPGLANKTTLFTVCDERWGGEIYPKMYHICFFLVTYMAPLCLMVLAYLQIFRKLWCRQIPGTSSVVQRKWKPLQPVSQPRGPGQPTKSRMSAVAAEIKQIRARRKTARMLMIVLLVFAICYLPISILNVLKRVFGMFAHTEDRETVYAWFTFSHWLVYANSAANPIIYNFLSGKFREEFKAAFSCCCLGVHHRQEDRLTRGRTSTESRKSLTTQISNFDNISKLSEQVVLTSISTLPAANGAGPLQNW
Assay: Measurement of orexin type 2 receptor agonist activity (FLIPR calcium fluorescence)
Assay type: cell-based
Settings: CHO cells expressing hOX2R, FLIPR calcium fluorescence; read-out: hOx2 pEC50 (converted)
Catalogue of EC50 readings, one per entry.

Worked set:
COC1(CNC(=O)N2CC3(CC3)[C@H](NS(=O)(=O)CF)[C@@H]2Cc2cccc(-c3ccccc3)c2F)CC1 [Compound 370] : 0.0794 to 1 nM
CCS(=O)(=O)NC1C(Cc2cccc(-c3ccccc3)c2)N(C(=O)OC)CC12CC2 (racemic) [Compound 6] : 100 to 1000 nM
O=C([C@@H](O)C1CC1)N1CC2(CC2)[C@H](NS(=O)(=O)C(F)F)[C@@H]1Cc1cccc(-c2ccccc2)c1F [Compound 170] : 1 to 10 nM
CN(C)S(=O)(=O)N[C@@H]1[C@H](Cc2cccc(-c3ccccc3)c2F)N(C(=O)N2CC(F)C2)CC12CC2 [Compound 117] : 0.0794 to 1 nM
CC(C)(O)C(=O)N1CC2(CC2)[C@H](NS(=O)(=O)C2CC2)[C@@H]1Cc1cccc(-c2cc(F)cc(F)c2)c1F [Compound 230] : 1 to 10 nM
CC(C)(O)C(=O)N1CC2(CC2)[C@H](NS(=O)(=O)C(F)F)[C@@H]1Cc1cccc(-c2cccc(F)c2)c1F [Compound 164] : 10 to 100 nM
CN(C)S(=O)(=O)N[C@@H]1[C@H](Cc2cccc(-c3ccccc3)c2F)N(C(=O)[C@H]2CCO2)CC12CC2 [Compound 64] : 0.0794 to 1 nM
CS(=O)(=O)NC1C(Cc2cccc(-c3cc(F)cc(F)c3)c2F)N(C(=O)C2CCC2)CC12CC2 (racemic) [Compound 29] : 0.0794 to 1 nM

Task: Sample CCS(=O)(=O)NC1C(Cc2cc(F)cc(-c3ccccc3)c2F)N(C(=O)[C@H](O)CF)CC12CC2 (stereo in doubt) [Compound 356] — what was its EC50?
Result: 10 to 100 nM

Task: Further, for COCC1(C(=O)N2CC3(CC3)[C@H](NS(C)(=O)=O)[C@@H]2Cc2cccc(-c3ccccc3)c2F)CC1 [Compound 386] ?
Result: 1 to 10 nM
